Below are GI50 values recorded for SK-OV-3 ovarian.

Below: 4 molecules and their reported GI50.
Cc1ccc(/C=C(\C#N)n2nnc3cc(Cl)c(Cl)cc32)cc1
3.69 µM
O=C(Oc1cccnc1)c1ccccc1Nc1ccnc(C(F)(F)F)c1
0.25 µM
COC(=O)/C(C#N)=C\N1CCN(C(=O)c2ccco2)C1=S
28.2 µM
COc1cc(/C=C/C(=O)C(=Cc2ccc(F)c(F)c2)C(=O)/C=C/c2ccc(O)c(OC)c2)ccc1O
3.45 µM

INPUT: Give recorded GI50 with SK-OV-3 ovarian for the following molecule: Cc1ccc(-n2c3c(c4c(CN5CCCCC5)c(O)ccc42)CCc2ccccc2C3=O)cc1
OUTPUT: > 100 µM

INPUT: Give the reported GI50 for COc1cc2c(cc1OC)C(CCc1ccc(Cl)cc1)N(C)CC2 (stereo not drawn) (system: SK-OV-3 ovarian).
OUTPUT: 32.2 µM

INPUT: Param readout = GI50; param system = SK-OV-3 ovarian; param query = CCN1CCN(CCOc2ccc(CNc3ccc4nc(CCC5CCCCC5)[nH]c4c3)cc2)CC1 ; response: value
OUTPUT: 2.28 µM

INPUT: Kindly state the measured GI50 obtained for COC(=O)[C@]12CC[C@@H](C)[C@H](C)[C@@H]1C1=CC[C@@H]3[C@@]4(C)C[C@@H](OC(=O)c5ccco5)[C@H](O)[C@@](C)(CO)[C@@H]4[C@H](O)C[C@@]3(C)[C@]1(C)CC2 with SK-OV-3 ovarian.
OUTPUT: 3.95 µM

----------
test system: NCI-H522 lung; test: NCI tumour cell line growth inhibition, 48 h
measured-attribute: TGI

CCCCC1Cc2cc(O)ccc2-c2n1c1cc(O)ccc1[n+]2C (stereo not given) (tested in a mixture with another compound)
> 47.4 µM

INPUT: Name the recorded TGI for CSC1=Nc2c(c(C)c(-c3ccccc3)n2COC(CO)CO)C2=NC(=O)C(C)N12 (stereo not given) .
OUTPUT: > 100 µM

INPUT: Would you mind telling me what TGI value was observed for COc1c(OC(C)=O)cc2c(OC(C)=O)c1CC(C)CC(OC)C(O)C(C)/C=C(\C)C(OC(N)=O)C(OC)/C=C\C=C(/C)C(=O)N2 (stereo not given) ?
OUTPUT: > 41.5 µM

INPUT: Look up TGI for this compound: CCCCCCCCCc1cc(O)c(O)cc1CCCCCCCCC
OUTPUT: > 10 µM

INPUT: Report TGI for Cc1ccc2nc3c(Cl)cc(=O)cc-3sc2c1 please.
OUTPUT: 39 µM

----------
Overview of recorded TGI for various molecules
tested on: M14 melanoma; experiment: NCI tumour cell line growth inhibition, 48 h

# count of solved cases: 2
C=C1c2nc3ccccc3n2C=C(c2ccc(Cl)cc2)N1c1ccc(OCCN2CCOCC2)cc1
58.8 µM
C=CCN1CCC(OC(=O)C(O)(/C=C\CC)C2CCCC2)CC1 (stereo unspecified)
> 100 µM

INPUT: Would you mind telling me what TGI value was observed for CCSC1(SCC)CCN(C=NC(C)(C)C)C1 ?
OUTPUT: > 100 µM

INPUT: For Cc1cc2c3ccccc3n(C)c2c2c1C(=O)c1ccccc1C2=O , what is its reported TGI?
OUTPUT: 40.9 µM

INPUT: Sample CC1C2Cc3ccc(O)cc3C1(C)CCN2C (stereo unspecified) — what was its TGI?
OUTPUT: > 100 µM

INPUT: What value of measured TGI is listed for Cc1c2ccccc2c(C)c2c3c(ccc12)C(=O)C=CC3=O ?
OUTPUT: > 81.2 µM

INPUT: So what does the record say about TGI for COC(=O)C12CCC(C(=O)OC)(Cc3c(c4ccccc4n3S(=O)(=O)c3ccccc3)C1)C2=O (stereo unspecified) ?
OUTPUT: > 100 µM

INPUT: Which TGI reading was recorded for the molecule Cn1cc(-c2csc(-c3c[nH]c4ncccc34)n2)c2cc(Br)cnc21 ?
OUTPUT: > 100 µM

INPUT: Field request: TGI | item: N#CC12COC3(CCCCC3C1(C#N)C#N)OC2=N (stereo unspecified)
OUTPUT: 22.4 µM

INPUT: Dear colleague, I am looking for the recorded TGI of the following molecule: CCCNc1nc(N(C)O)nc(N(C)O)n1
OUTPUT: > 29.4 µM

INPUT: Data request, read-out TGI, for CCCc1cc(=O)oc2c(C(=O)CC(C)C)c(O)c(CC=C(C)C)c(O)c12
OUTPUT: > 50 µM
